// provenance: patent US7781592B2

# maps each entry to its inhibition at 0.03 µM
Biological target: COX-2 (Mus musculus, UniProt Q05769)
Construct: host or cells: RAW 264.7 cells, pre-treated with aspirin, then induced with interferon and LPS
Sequence (Q05769 18-604): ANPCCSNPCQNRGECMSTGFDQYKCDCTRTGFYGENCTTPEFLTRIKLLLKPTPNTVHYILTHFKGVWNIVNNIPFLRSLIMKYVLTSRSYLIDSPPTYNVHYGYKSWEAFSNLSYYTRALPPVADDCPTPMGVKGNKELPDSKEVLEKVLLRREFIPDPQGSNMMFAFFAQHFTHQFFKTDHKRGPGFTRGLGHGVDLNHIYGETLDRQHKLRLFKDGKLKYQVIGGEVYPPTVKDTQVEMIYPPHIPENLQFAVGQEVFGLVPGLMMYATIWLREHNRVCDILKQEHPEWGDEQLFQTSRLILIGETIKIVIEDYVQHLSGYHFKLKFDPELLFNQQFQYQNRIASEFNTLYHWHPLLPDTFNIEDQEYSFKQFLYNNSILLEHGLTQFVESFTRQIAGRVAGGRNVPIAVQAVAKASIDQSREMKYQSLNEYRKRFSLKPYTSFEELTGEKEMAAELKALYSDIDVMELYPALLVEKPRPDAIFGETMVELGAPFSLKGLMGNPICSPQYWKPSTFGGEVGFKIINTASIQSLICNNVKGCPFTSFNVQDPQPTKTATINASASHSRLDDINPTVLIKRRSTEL
Test: Assay for the COX-2 inhibitory activity using Raw 264.7 cell line (PGE2 inhibition)
Format: cell-based
Conditions: RAW264.7; test compound 30 nM; RAW 264.7 cells; aspirin pre-treated, interferon + LPS 18 hours; PGE2 by EIA; read-out: Cyclooxygenase (COX) Inhibition (%) COX-2 (30 nM)
Write the number in % without appending the unit.

A selection of reference data follows.
Exercise: Please tell me: inhibition at 0.03 µM of CS(=O)(=O)c1ccc(-c2ssc(=S)c2-c2cccnc2)cc1 , system COX-2 (Mus musculus, UniProt Q05769)?
Solution: 24.2

Exercise: What do you get for CS(=O)(=O)c1ccc(-c2ssc(=S)c2-c2ccccc2C(F)(F)F)cc1 ?
Solution: 20.1

Exercise: Same question for COc1ccc(-c2c(-c3ccc(S(C)(=O)=O)c(F)c3)ssc2=S)cc1 please.
Solution: 32.5

Exercise: What do you get for CCOc1ccc(-c2c(-c3ccc(S(C)(=O)=O)cc3)ssc2=S)cc1 ?
Solution: 36.6

Exercise: Now the molecule COc1ccc(OC)c(-c2c(-c3ccc(S(C)(=O)=O)cc3)ssc2=S)c1
Solution: 19.8

For the next question, use this molecule.
Exercise: What reported inhibition at 0.03 µM corresponds to CS(=O)(=O)c1ccc(-c2ssc(=S)c2-c2ccc(Br)cc2)cc1 on COX-2 (Mus musculus, UniProt Q05769)?
Solution: 35.7

====

Target: COX-2 (Mus musculus, UniProt Q05769)
Construct: host or cells: RAW 264.7 cells, pre-treated with aspirin, then induced with interferon and LPS
Experiment: Assay for the COX-2 inhibitory activity using Raw 264.7 cell line (PGE2 inhibition)
Type: cell-based
Conditions: RAW264.7; test compound 30 nM; RAW 264.7 cells; aspirin pre-treated, interferon + LPS 18 hours; PGE2 by EIA; read-out: Cyclooxygenase (COX) Inhibition (%) COX-2 (30 nM)
Use 20% as the dividing line for inhibition at 0.03 µM, with the line itself on the true (1) side and lower values as false (0).

Solved entries (count: 5):
Exercise: Threshold query (inhibition at 0.03 µM >= 20%) on CS(=O)(=O)c1ccc(-c2ssc(=S)c2-c2ccccc2F)cc1
Solution: true (1)

Exercise: Now this one: CS(=O)(=O)c1ccc(-c2ssc(=S)c2-c2ccc(Cl)c(Cl)c2)cc1
Solution: true (1)

Exercise: Param item: CS(=O)(=O)c1ccc(-c2[nH][nH]c(=S)c2-c2ccc(Cl)c(Cl)c2)cc1
Solution: true (1)

Exercise: Then what about the compound CS(=O)(=O)c1ccc(-c2ssc(=S)c2-c2ccc(Br)cc2)c(Cl)c1 ?
Solution: false (0)

Exercise: CC(=O)Oc1ccc(-c2c(-c3ccc(S(C)(=O)=O)c(F)c3)ssc2=S)cc1 ?
Solution: true (1)

***
Exercise: Would you say Cc1ccc(-c2c(-c3ccc(F)c(F)c3)ssc2=S)cc1 shows inhibition at 0.03 µM at minimum 20%?
Solution: false (0)

====

Parameter Cyclooxygenase (COX) Inhibition (%) COX-1 (1 μM): see the listing below.
Target: COX-1 (Homo sapiens, UniProt P23219)
Construct: host or cells: U-937 human lymphoma cells
Sequence (P23219 24-599): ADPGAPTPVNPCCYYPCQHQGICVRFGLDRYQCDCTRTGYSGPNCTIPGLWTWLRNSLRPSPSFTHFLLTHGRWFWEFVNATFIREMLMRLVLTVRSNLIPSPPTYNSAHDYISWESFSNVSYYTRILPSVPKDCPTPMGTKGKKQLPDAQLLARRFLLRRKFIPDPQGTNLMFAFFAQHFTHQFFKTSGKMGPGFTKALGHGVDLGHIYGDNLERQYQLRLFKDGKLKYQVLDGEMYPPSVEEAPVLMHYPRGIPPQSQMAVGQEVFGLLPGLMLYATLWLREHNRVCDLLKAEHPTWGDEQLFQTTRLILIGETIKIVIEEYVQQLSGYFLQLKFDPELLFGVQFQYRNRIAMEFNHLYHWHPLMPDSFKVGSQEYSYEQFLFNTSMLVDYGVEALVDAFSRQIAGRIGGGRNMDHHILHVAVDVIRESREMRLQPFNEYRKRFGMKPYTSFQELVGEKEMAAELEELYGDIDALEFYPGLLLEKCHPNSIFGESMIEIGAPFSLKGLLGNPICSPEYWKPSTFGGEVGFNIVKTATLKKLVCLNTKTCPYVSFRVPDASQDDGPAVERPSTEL
Assay: Assay for the COX-1 inhibitory activity using U-937 (PGE2 inhibition)
Assay type: cell-based
Settings: test compound 1 μM; U-937 human lymphoma cells; arachidonic acid substrate; PGE2 quantified
State just the number; it will be interpreted in %.

Examples from the recorded data:
Exercise: Notebook: pull reported Cyclooxygenase (COX) Inhibition (%) COX-1 (1 μM) for COX-1 (Homo sapiens, UniProt P23219), entry Cc1ccc(-c2c(-c3ccc(S(C)(=O)=O)cc3)[nH][nH]c2=S)cc1 [Example 80]
Solution: 25.6

Exercise: Another compound: CS(=O)(=O)c1ccc(-c2ssc(=S)c2-c2c(F)c(F)c(F)c(F)c2F)cc1 [Example 66]
Solution: 28.2

Exercise: And Cc1ccc(-c2c(-c3ccc(S(C)(=O)=O)cc3Cl)ssc2=S)cc1 [Example 71] ?
Solution: 20.3

Exercise: Next record, please: Cc1ccc(-c2c(-c3ccc(S(C)(=O)=O)c(F)c3)ssc2=S)cc1 [Example 77]
Solution: 15.2

Exercise: Next up: Cc1ccc(-c2c(-c3ccc(S(C)(=O)=O)cc3)ssc2=S)cc1 [Example 41]
Solution: 20.1

Okay, now this compound:
Exercise: Request body: readout Cyclooxygenase (COX) Inhibition (%) COX-1 (1 μM), system COX-1 (Homo sapiens, UniProt P23219), query Cc1ccccc1-c1c(-c2ccc(S(C)(=O)=O)cc2)ssc1=S [Example 56] . Return the value.
Solution: 20.6

====

Biological target: COX-1 (Homo sapiens)
Construct: host or cells: U-937 human lymphoma cells
Assay: Assay for the COX-1 inhibitory activity using U-937 (PGE2 inhibition)
Assay type: cell-based
Conditions: test compound 1 μM; U-937 human lymphoma cells; arachidonic acid substrate; PGE2 quantified; read-out: Cyclooxygenase (COX) Inhibition (%) COX-1 (1 μM)
The entries below come with measured inhibition at 1 µM values attached.
Numeric only. Scale: %

These solved cases illustrate the format of a correct answer.
Exercise: Which inhibition at 1 µM is reported for this molecule? CC(=O)Oc1ccc(-c2c(-c3ccc(F)c(F)c3)ssc2=S)cc1
Solution: 21.6

Exercise: Ok, now CS(=O)(=O)c1ccc(-c2[nH][nH]c(=S)c2-c2ccc(Cl)c(Cl)c2)cc1
Solution: 24.9

Exercise: Moving on to COc1ccc(-c2c(-c3ccc(S(C)(=O)=O)cc3Cl)ssc2=S)cc1
Solution: 25.6

Further cases:
Exercise: Need inhibition at 1 µM, item CS(=O)(=O)c1ccc(-c2ssc(=S)c2-c2ccc(F)cc2Cl)cc1
Solution: 23.2

Exercise: Now this one: CS(=O)(=O)c1ccc(-c2ssc(=S)c2-c2ccccc2Br)cc1
Solution: 23.3

Exercise: Now consider CC(=O)Oc1ccc(-c2c(-c3ccc(S(C)(=O)=O)cc3)ssc2=S)cc1 .
Solution: 24.8

Exercise: CS(=O)(=O)c1ccc(-c2ssc(=S)c2-c2ccccc2C(F)(F)F)cc1 , same question.
Solution: 25.5

Exercise: Can you handle COc1ccc(-c2c(-c3ccc(S(C)(=O)=O)cc3)ssc2=S)cc1 next?
Solution: 19.3

Exercise: Continue with CS(=O)(=O)c1ccc(-c2ssc(=S)c2-c2ccccn2)cc1
Solution: 28

====

Target: COX-2 (Mus musculus)
Construct: host or cells: RAW 264.7 cells, pre-treated with aspirin, then induced with interferon and LPS
Experiment: Assay for the COX-2 inhibitory activity using Raw 264.7 cell line (PGE2 inhibition)
Type: cell-based
Details: test compound 30 nM; RAW 264.7 cells; aspirin pre-treated, interferon + LPS 18 hours; PGE2 by EIA
readout.kind: Cyclooxygenase (COX) Inhibition (%) COX-2 (30 nM)
Express your answer in %, writing the number without its unit.

Sample records with Cyclooxygenase (COX) Inhibition (%) COX-2 (30 nM):
Exercise: So what's the measured Cyclooxygenase (COX) Inhibition (%) COX-2 (30 nM) for this one? Cc1ccc(-c2c(-c3ccc(S(C)(=O)=O)cc3)ssc2=S)cc1 [Example 41]
Solution: 24.5

Exercise: Follow-up entry: Cc1ccc(-c2c(-c3ccc(S(C)(=O)=O)cc3)[nH][nH]c2=S)cc1 [Example 80]
Solution: 23.2

Exercise: // query: Cc1ccc(-c2c(-c3ccc(S(C)(=O)=O)cc3Cl)ssc2=S)cc1 [Example 71]
Solution: 21.0

Others:
Exercise: Fill in: Cyclooxygenase (COX) Inhibition (%) COX-2 (30 nM) of Cc1ccc(-c2c(-c3ccc(S(C)(=O)=O)c(F)c3)ssc2=S)cc1 [Example 77] is ___
Solution: 31.5

Exercise: Queued: Cc1ccccc1-c1c(-c2ccc(S(C)(=O)=O)cc2)ssc1=S [Example 56]
Solution: 25.6

Exercise: Same for CS(=O)(=O)c1ccc(-c2ssc(=S)c2-c2c(F)c(F)c(F)c(F)c2F)cc1 [Example 66]
Solution: 19.2

====

Target: COX-1 (Homo sapiens)
Construct: host or cells: U-937 human lymphoma cells
Assay: Assay for the COX-1 inhibitory activity using U-937 (PGE2 inhibition)
Assay type: cell-based
Details: test compound 1 μM; U-937 human lymphoma cells; arachidonic acid substrate; PGE2 quantified; read-out: Cyclooxygenase (COX) Inhibition (%) COX-1 (1 μM)
readout.kind: inhibition at 1 µM (%)
Provide only the numeric value, understood in %.

Consider the reported inhibition at 1 µM for these compounds:
Exercise: Query: inhibition at 1 µM; subject: Cc1ccc(-c2c(-c3ccc(F)c(F)c3)ssc2=S)cc1
Solution: 26.5

Exercise: Queued: COc1ccc(-c2c(-c3ccc(S(C)(=O)=O)c(F)c3)ssc2=S)cc1
Solution: 18.5

Exercise: Now consider CS(=O)(=O)c1ccc(-c2ssc(=S)c2-c2ccc(F)cc2)cc1 and answer again.
Solution: 27.2

***
Exercise: Sample Cc1cc(C)cc(-c2c(-c3ccc(S(C)(=O)=O)cc3)ssc2=S)c1 — what was its inhibition at 1 µM?
Solution: 26.6

Exercise: Try CC(=O)Oc1ccc(-c2c(-c3ccc(S(C)(=O)=O)c(F)c3)ssc2=S)cc1 next.
Solution: 19.5
